Measured Levels of phosphorylated AKT in treated cells (pAKT/actin) values are reported for all entries that follow.
Test system: Akt phosphorylation induced by IGF-1R
Assay: Western blot analysis of Akt phosphorylation induced by IGF-1 in HT-29 cells
Assay type: cell-based, Human
Settings: 0.1 nM compound, HT-29 cells, IGF-1
Respond with the number and no other words.

{"molecule": "CC(C)c1cc(Nc2nc(N3CCCC3C(=O)Nc3ccc(F)nc3)nc3c2CCC3)n[nH]1 (single isomer, unassigned) [Compound 8b]", "result": 1.47}
{"molecule": "O=C(Nc1ccc(F)nc1)C1C(O)CCN1c1nc2c(c(Nc3cc(C4CC4)[nH]n3)n1)CCC2 (single isomer, unassigned) [Compound 11b]", "result": 1.55}
{"molecule": "O=C(Nc1ccc(F)nc1)C1CCCN1c1nc2c(c(Nc3cc(C4CC4)[nH]n3)n1)CCC2 (racemic) [Compound 2]", "result": 1.04}

API: the following record is the query input.
[ask] // lookup Levels of phosphorylated AKT in treated cells (pAKT/actin) | system=Akt phosphorylation induced by IGF-1R | key= O=C(Nc1ccc(F)nc1)C1CCCN1c1nc2c(c(Nc3cc(C4CCCC4)[nH]n3)n1)CCC2 (racemic) [Compound 4]
[reply] 1.92

====

Listed next: entries and their corresponding % Inh @ 30 nM (N2).
Target: IGF-1R (Homo sapiens)
Construct: purchased Millipore 14-802
Sequence (P08069 31-1367): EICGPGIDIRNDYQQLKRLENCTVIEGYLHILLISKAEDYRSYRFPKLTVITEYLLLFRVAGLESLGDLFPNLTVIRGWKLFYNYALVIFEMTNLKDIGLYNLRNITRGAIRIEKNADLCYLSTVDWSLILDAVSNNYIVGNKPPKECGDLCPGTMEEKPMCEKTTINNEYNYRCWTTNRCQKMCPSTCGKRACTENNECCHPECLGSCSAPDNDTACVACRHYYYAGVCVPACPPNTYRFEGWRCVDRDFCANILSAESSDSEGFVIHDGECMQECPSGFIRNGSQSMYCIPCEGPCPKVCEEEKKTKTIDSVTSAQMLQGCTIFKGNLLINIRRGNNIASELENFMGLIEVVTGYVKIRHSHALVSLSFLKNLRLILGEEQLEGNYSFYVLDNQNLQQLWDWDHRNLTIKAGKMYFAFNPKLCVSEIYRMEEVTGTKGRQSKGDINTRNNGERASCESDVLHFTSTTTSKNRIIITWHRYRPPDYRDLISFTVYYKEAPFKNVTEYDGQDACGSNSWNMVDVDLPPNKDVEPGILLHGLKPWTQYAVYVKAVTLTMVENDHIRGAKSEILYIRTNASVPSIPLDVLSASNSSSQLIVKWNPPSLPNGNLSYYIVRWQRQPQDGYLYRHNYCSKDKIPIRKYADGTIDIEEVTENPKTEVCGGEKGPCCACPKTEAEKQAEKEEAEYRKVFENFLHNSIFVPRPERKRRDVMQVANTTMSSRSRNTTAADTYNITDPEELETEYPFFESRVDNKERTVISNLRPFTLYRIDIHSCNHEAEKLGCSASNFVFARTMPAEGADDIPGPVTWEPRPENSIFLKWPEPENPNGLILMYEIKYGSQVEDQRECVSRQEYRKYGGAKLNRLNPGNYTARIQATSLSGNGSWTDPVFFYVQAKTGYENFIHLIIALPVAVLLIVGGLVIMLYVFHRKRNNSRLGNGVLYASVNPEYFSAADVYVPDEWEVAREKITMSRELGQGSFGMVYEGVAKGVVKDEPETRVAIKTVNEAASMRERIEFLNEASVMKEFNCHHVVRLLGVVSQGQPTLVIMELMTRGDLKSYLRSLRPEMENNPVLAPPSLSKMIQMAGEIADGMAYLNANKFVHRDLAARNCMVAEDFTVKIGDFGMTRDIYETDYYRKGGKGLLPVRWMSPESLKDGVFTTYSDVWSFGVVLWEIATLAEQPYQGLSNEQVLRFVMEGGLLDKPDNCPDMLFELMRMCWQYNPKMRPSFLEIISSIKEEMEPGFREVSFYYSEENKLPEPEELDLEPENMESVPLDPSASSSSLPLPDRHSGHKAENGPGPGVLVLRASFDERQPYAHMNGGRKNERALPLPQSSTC
Test: In vitro IGF-1R enzymatic assay (ADP-Glo kinase assay)
Format: biochemical
Conditions: activated IGF-1R, 30 nM, N2; 0.03 µM
The reply should contain only the number, in %.

Some solved entries appear below for comparison.
{"molecule": "O=C(Nc1ccc(F)nc1)C1CCCN1c1nc2c(c(Nc3cc(C4CCCC4)[nH]n3)n1)CCC2 (single isomer, unassigned) [Compound 4a]", "target desc": "IGF-1R (Homo sapiens)", "u": "%", "% Inh @ 30 nM (N2)": 17}
{"molecule": "O=C(Nc1ccc(F)nc1)C1CCCCN1c1nc2c(c(Nc3cc(C4CCCC4)[nH]n3)n1)CCC2 (single isomer, unassigned) [Compound 17b]", "target desc": "IGF-1R (Homo sapiens)", "u": "%", "% Inh @ 30 nM (N2)": 23}

[ask] Could you tell me which % Inh @ 30 nM (N2) is on file for CC(C)c1cc(Nc2nc(N3CCCCC3C(=O)Nc3ccc(F)nc3)nc3c2CCC3)n[nH]1 (single isomer, unassigned) [Compound 16a] ?
[reply] 15

====

Measured % Inh @ 30 nM (N1) values are reported for all entries that follow.
Target: IR (Homo sapiens)
Construct: purchased Millipore 14-803
Sequence (P06213 28-1382): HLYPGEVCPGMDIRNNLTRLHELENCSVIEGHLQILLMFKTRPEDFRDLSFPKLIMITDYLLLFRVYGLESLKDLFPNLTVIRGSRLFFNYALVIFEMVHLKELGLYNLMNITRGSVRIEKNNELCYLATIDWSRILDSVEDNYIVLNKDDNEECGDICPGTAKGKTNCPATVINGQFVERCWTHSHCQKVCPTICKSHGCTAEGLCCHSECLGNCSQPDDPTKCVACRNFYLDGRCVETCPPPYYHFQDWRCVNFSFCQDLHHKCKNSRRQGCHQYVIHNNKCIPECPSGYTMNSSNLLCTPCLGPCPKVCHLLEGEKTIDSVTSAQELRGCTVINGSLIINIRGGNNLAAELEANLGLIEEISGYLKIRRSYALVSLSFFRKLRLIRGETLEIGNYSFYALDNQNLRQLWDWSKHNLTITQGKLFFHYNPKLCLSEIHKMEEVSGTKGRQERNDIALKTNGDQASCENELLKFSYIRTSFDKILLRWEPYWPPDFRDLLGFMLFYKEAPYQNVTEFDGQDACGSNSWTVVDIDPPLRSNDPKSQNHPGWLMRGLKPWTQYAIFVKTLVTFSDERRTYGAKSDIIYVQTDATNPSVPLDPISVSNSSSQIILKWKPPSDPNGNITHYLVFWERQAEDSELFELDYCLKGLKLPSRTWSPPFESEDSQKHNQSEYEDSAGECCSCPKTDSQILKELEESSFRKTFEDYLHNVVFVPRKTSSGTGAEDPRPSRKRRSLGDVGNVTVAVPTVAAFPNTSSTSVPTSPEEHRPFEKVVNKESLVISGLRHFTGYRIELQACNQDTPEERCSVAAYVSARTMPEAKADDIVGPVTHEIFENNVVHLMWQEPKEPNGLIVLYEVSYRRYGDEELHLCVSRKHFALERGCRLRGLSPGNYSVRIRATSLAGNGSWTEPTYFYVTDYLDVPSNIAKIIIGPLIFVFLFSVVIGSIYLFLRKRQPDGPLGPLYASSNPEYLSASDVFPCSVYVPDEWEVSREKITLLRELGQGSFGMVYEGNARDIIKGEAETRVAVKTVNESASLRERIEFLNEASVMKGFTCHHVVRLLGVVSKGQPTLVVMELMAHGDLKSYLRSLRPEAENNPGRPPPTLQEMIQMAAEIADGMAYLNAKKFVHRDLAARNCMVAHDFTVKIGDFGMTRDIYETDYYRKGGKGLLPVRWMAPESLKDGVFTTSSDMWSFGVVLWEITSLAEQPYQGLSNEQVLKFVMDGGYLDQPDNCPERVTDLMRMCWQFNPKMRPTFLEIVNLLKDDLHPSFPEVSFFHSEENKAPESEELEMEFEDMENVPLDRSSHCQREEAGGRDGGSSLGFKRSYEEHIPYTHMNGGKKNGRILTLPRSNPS
Assay: In vitro IR enzymatic assay (ADP-Glo kinase assay)
Assay type: biochemical
Settings: activated IR, 30 nM, N1; 0.03 µM
Method: IC50 values of the compounds of the invention against IGF-1R and IR were measured in vitro using an ADP-Glo kinase assay Kit (Promega). […] Kinase reactions in both assays were conducted at 30° C. for 20 min with increasing concentrations of compounds of the invention. Additional compounds of the invention were screened against activated IR.
Answer with a number only, understood to be in %.

{"compound": "O=C(Nc1ccc(F)nc1)C1CCCN1c1nc2c(c(Nc3cc(C4CCCC4)[nH]n3)n1)CCCC2 (single isomer, unassigned) [Compound 15a]", "target desc": "IR (Homo sapiens)", "u": "%", "result": "−2"}
{"compound": "O=C(Nc1ccc(F)nc1)C1C(O)CCN1c1nc2c(c(Nc3cc(C4CC4)[nH]n3)n1)CCC2 (single isomer, unassigned) [Compound 11b]", "target desc": "IR (Homo sapiens)", "u": "%", "result": "−2"}
{"compound": "O=C(Nc1ccc(F)nc1)C1CCCN1c1nc2c(c(Nc3cc(C4CCCC4)[nH]n3)n1)CCCC2 (single isomer, unassigned) [Compound 15b]", "target desc": "IR (Homo sapiens)", "u": "%", "result": 28}
{"compound": "CC(C)c1cc(Nc2nc(N3CCCCC3C(=O)Nc3ccc(F)nc3)nc3c2CCC3)n[nH]1 (single isomer, unassigned) [Compound 16b]", "target desc": "IR (Homo sapiens)", "u": "%", "result": 26}
{"compound": "O=C(Nc1ccc(F)nc1)C1CCCN1c1nc2c(c(Nc3cc(C4CCCC4)[nH]n3)n1)CCC2 (single isomer, unassigned) [Compound 4a]", "target desc": "IR (Homo sapiens)", "u": "%", "result": "−14"}

[ask] Field request: % Inh @ 30 nM (N1) | item: CC(C)c1cc(Nc2nc(N3CCCCC3C(=O)Nc3ccc(F)nc3)nc3c2CCC3)n[nH]1 (single isomer, unassigned) [Compound 16a]
[reply] 1

[ask] If you can, please state the reported % Inh @ 30 nM (N1) value of O=C(Nc1ccc(F)nc1)[C@H]1[C@@H](O)CCN1c1nc2c(c(Nc3cc(C4CC4)[nH]n3)n1)CCC2 (single isomer, unassigned) [Compound 11a] .
[reply] −17

[ask] Which % Inh @ 30 nM (N1) value is on record for O=C(Nc1ccc(F)nc1)C1CCCN1c1nc2c(c(Nc3cc(C4CCCC4)[nH]n3)n1)CCC2 (single isomer, unassigned) [Compound 4b] ?
[reply] 41
